In this section we review reported inhibition values for a set of molecules.
target: NACHT, LRR and PYD domains-containing protein 3 (Mus musculus) (UniProt Q8R4B8); experiment: Inhibition of NLRP3 inflammasome activation in LPS-stimulated mouse J774A.1 cells assessed as inhibition of cell pyrolysis at 10 uM incubated for 1 hr followed by ATP addition and measured after 30 mins by Hoechst 33342/propidium iodide staining based high content screening method relative to control; details: J774.A1, time 1.5 hrs
Sequence (Q8R4B8 whole entry, the tested form may be a part): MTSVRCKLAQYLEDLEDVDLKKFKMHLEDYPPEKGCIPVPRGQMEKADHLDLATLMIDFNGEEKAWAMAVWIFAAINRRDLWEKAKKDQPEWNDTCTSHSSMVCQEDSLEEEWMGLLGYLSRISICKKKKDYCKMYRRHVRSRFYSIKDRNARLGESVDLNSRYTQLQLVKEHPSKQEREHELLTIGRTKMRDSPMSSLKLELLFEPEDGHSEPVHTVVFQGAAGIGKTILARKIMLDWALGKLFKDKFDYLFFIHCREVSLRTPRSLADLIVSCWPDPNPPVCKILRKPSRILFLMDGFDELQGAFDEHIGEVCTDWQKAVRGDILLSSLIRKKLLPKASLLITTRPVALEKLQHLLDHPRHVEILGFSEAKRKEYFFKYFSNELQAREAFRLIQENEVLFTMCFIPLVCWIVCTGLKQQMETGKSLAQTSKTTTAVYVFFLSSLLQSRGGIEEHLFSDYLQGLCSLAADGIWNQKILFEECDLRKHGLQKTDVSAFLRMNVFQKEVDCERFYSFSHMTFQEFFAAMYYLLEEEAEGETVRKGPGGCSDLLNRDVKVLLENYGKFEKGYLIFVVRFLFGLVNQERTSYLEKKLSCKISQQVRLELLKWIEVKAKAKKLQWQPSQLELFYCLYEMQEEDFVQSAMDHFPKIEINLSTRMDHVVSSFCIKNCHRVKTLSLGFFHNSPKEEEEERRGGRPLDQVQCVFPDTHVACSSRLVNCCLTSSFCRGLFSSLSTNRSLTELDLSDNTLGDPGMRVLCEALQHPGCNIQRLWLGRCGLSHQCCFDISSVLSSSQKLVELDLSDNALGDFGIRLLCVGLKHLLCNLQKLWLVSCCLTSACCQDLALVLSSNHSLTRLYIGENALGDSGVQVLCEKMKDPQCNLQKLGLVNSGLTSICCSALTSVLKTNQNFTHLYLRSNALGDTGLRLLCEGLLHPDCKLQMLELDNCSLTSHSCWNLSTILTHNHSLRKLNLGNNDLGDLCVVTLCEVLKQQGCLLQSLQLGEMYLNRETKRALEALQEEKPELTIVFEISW
measuredParameter: inhibition (%)

COc1cc(/C=C/c2ccc(OCC(=O)NCc3ccccc3)cc2)cc(OC)c1	9.65
COc1cc(/C=C/c2ccc(NC(=O)C3CCCC3)cc2)c(/C=C/[N+](=O)[O-])c(OC)c1	45.7
CCCCC(=O)Nc1ccc(/C=C/c2cc(OC)cc(OC)c2/C=C/[N+](=O)[O-])cc1	36
COc1cc(/C=C/c2ccc(NC(=O)CC(C)(C)C)cc2)c(/C=C/[N+](=O)[O-])c(OC)c1	9.89
CCC(=O)Nc1ccc(/C=C/c2cc(OC)cc(OC)c2/C=C/[N+](=O)[O-])cc1	50.7
COc1cc(/C=C/c2ccc(OCC(=O)NCCc3ccccc3)cc2)c(/C=C/[N+](=O)[O-])c(OC)c1	26.2
COCC(=O)Nc1ccc(/C=C/c2cc(OC)cc(OC)c2/C=C/[N+](=O)[O-])cc1	60
C=CCCCOc1ccc(/C=C/c2cc(OC)cc(OC)c2)cc1	11.1
CCCC(C)C(=O)Nc1ccc(/C=C/c2cc(OC)cc(OC)c2/C=C/[N+](=O)[O-])cc1 (stereo not given)	41
COc1cc(/C=C/c2ccc(NC(=O)OC(C)(C)C)cc2)c(/C=C/[N+](=O)[O-])c(OC)c1	24
COc1cc(/C=C/c2ccc(OCC(=O)NCC3CCOCC3)cc2)c(/C=C/[N+](=O)[O-])c(OC)c1	15.3
COc1cc(/C=C/c2ccc(OCc3ccc(C(F)(F)F)cc3)cc2)cc(OC)c1	6.32
COc1cc(/C=C/c2ccc(OCC(=O)NC3CCN(C(=O)OC(C)(C)C)CC3)cc2)c(/C=C/[N+](=O)[O-])c(OC)c1	33
COc1cc(/C=C/c2ccc(NC(=O)CCl)cc2)c(/C=C/[N+](=O)[O-])c(OC)c1	90
COc1cc(/C=C/c2ccc(NC(=O)C3CCCCC3)cc2)c(/C=C/[N+](=O)[O-])c(OC)c1	28.7
COc1cc(/C=C/c2ccc(NC(=O)C(C)C)cc2)c(/C=C/[N+](=O)[O-])c(OC)c1	69
COc1ccc(CNC(=O)COc2ccc(/C=C/c3cc(OC)cc(OC)c3/C=C/[N+](=O)[O-])cc2)cc1	11.8
C=C1C(=O)[C@]23[C@H](O)[C@H]1CC[C@H]2[C@@]12CO[C@]3(O)[C@@H](O)[C@@H]1C(C)(C)CC[C@@H]2O	69.5
COc1cc(/C=C/c2ccc(OCC(=O)Nc3ccc(Br)cc3)cc2)c(/C=C/[N+](=O)[O-])c(OC)c1	9.56
COc1cc(/C=C/c2ccc(N)cc2)c(/C=C/[N+](=O)[O-])c(OC)c1	54.7
COc1cc(/C=C/c2ccc(OCC(=O)Nc3ccc(Cl)cc3)cc2)c(/C=C/[N+](=O)[O-])c(OC)c1	22.1
C=CC(=O)Nc1ccc(/C=C/c2cc(OC)cc(OC)c2/C=C/[N+](=O)[O-])cc1	71.2
COc1cc(/C=C/c2ccc(NC(=O)C3CC3)cc2)c(/C=C/[N+](=O)[O-])c(OC)c1	73.1
COc1cc(/C=C/c2ccc(OCC(=O)NCc3ccc(C)cc3)cc2)c(/C=C/[N+](=O)[O-])c(OC)c1	24.1
COc1cc(/C=C/c2ccc(OCC(=O)NCc3ccc(Br)cc3)cc2)c(/C=C/[N+](=O)[O-])c(OC)c1	24
COc1cc(NC(=O)COc2ccc(/C=C/c3cc(OC)cc(OC)c3/C=C/[N+](=O)[O-])cc2)cc(OC)c1	20.1
COc1cc(/C=C/c2ccc(O)cc2)c(/C=C/[N+](=O)[O-])c(OC)c1	13.3
COc1cc(/C=C/c2ccc(NC(=O)C3CCC3)cc2)c(/C=C/[N+](=O)[O-])c(OC)c1	55.6
COc1cc(/C=C/c2ccc(OCC(=O)NCc3ccccc3)cc2)c(-c2cnn[nH]2)c(OC)c1	19.4
C=CCCCOc1ccc(/C=C/c2cc(OC)cc(OC)c2/C=C/[N+](=O)[O-])cc1	26.8
COCCCOc1ccc(/C=C/c2cc(OC)cc(OC)c2)cc1	17.1
COc1cc(/C=C/c2ccc(NC(C)=O)cc2)c(/C=C/[N+](=O)[O-])c(OC)c1	56.2
COc1cc(/C=C/c2ccc(NC(=O)COC(C)=O)cc2)c(/C=C/[N+](=O)[O-])c(OC)c1	61
COc1cc(/C=C/c2ccc(OCC(=O)NCc3ccncc3)cc2)c(/C=C/[N+](=O)[O-])c(OC)c1	45.3
COc1cc(/C=C/c2ccc(OCc3ccc(C(F)(F)F)cc3)cc2)c(/C=C/[N+](=O)[O-])c(OC)c1	17.9
